system: U-2 OS; assay: cell painting activity score (Mahalanobis distance from DMSO wells); higher = stronger morphological phenotype; conditions: 2.5 µM; 24 h
Provide the recorded cell painting activity score for the entries that follow.
No unit in the answer, please; the number alone is enough.

### Prompt Indicate its recorded cell painting activity score; the compound in question is "COC1=CC=C(S(=O)(O/N=C2C=C(C(C(C)=C\2)=O)C)=O)C=C1"
### Response 10.5

### Prompt Indicate the recorded cell painting activity score value for this compound: "COC(=O)[C@]1(C)CC[C@]2(C)CC[C@]3(C)C4=CC=C5C(=CC(=O)C(O)=C5C)[C@]4(C)CC[C@@]3(C)[C@@H]2C1"
### Response 32.8

### Prompt Tell me its cell painting activity score given "O=C1/C(=C/c2ccc(O)c(Br)c2)CCC/C1=C\c1ccc(O)c(Br)c1" as the entry.
### Response 5.97

### Prompt Supply recorded cell painting activity score for "C[C@@]1(CO)[C@H](O)CC[C@@]2(C)[C@H]1CC[C@H]1C[C@@H]3C[C@@]12CC[C@]3(O)CO" here.
### Response 14.8

### Prompt Give the reported cell painting activity score for this compound. "S=C(Nc1ccccc1)Nc1nc(-c2ccccc2)[n+](-c2ccccc2)s1"
### Response 5.25

### Prompt Provide measured cell painting activity score value, entry: "O=C(O)CCCc1ccc(N(CCCl)CCCl)cc1"
### Response 8

### Prompt Report measured cell painting activity score; entry is "O=C(NNS(=O)(=O)c1ccccc1)c1cc(-c2ccnnc2)ccc1F"
### Response 3.77

### Prompt Dear colleague, please send me the reported cell painting activity score for "C[C@H]1CCC/C=C/[C@@H]2C[C@H](O)C[C@H]2[C@H](O)/C=C/C(=O)O1" when you can.
### Response 15.3

### Prompt Give the value of cell painting activity score reported for the following: "COc1cccc2c1C(=O)c1c(O)c3c(c(O)c1C2=O)C[C@@](O)(C(=O)CO)C[C@@H]3O[C@H]1C[C@H](N)[C@H](O)[C@H](C)O1"
### Response 18.5

### Prompt Write down cell painting activity score measured for item "Cl.Nc1ccc(O)c2ccccc12"
### Response 9.4

### Prompt Identify cell painting activity score associated with the compound "Cc1cc(-c2ccccc2)cc(C(=O)NNS(=O)(=O)c2ccccc2)c1F"
### Response 6.97

### Prompt Consider the compound "O=c1cc(N2CCOCC2)oc2c(-c3ccccc3)cccc12" and give its recorded cell painting activity score.
### Response 4.5

### Prompt Given "C[n+]1ccc(-c2cc[n+](CCCCCCCCCC[P+](c3ccccc3)(c3ccccc3)c3ccccc3)cc2)cc1.[I-].[I-].[I-]" , respond with its cell painting activity score.
### Response 5.16

### Prompt Tell me cell painting activity score reported for O=C1CC(Nc2ccccc2)C(=O)N1Cc1ccccc1 (stereo not drawn)
### Response 3.99

### Prompt Using known records, supply cell painting activity score for "O=C(/C(C(N1CC2=CC=CC=C2)=O)=C/C3=C(C)C=C(O)C=C3C)N(CC4=CC=CC=C4)C1=O"
### Response 5.14

### Prompt Output measured cell painting activity score for this item: "C[C@@H]1O[C@@H](O[C@H]2[C@H](OC(=O)[C@]34CCC(C)(C)C[C@H]3C3=CC[C@@H]5[C@@]6(C)C[C@H](O)[C@H](O[C@@H]7O[C@H](CO)[C@@H](O)[C@H](O)[C@H]7O)[C@@](C)(CO)[C@@H]6CC[C@@]5(C)[C@]3(C)CC4)O[C@H](CO)[C@@H](O)[C@@H]2O)[C@H](O)[C@H](O)[C@H]1O[C@@H]1OC[C@@H](O)[C@H](O)[C@H]1O"
### Response 5.42

### Prompt Fill in cell painting activity score for record CC(Cc1ccc(O)c(O)c1)C(C)Cc1ccc(O)c(O)c1 (stereo not drawn)
### Response 11.8

### Prompt Identify measured cell painting activity score corresponding to "Cc1cnc(CNC(=O)c2c(=O)c3ccc(N4CCCN(C)CC4)nc3n3c2sc2ccccc23)cn1"
### Response 10.3

### Prompt Using known records, supply cell painting activity score for "C=C1[C@@H](C)[C@H]2[C@H](Cc3ccccc3)NC(=O)[C@]23OC(=O)/C=C/[C@H](O)CCC[C@@H](C)C/C=C/[C@H]3[C@@H]1O"
### Response 9.71

### Prompt Name the recorded cell painting activity score of the item "CNC(=O)Nc1ccc2c(c1)[C@@]1(CC2)OC(=O)N(CC(=O)N(Cc2ccc(F)cc2)[C@@H](C)C(F)(F)F)C1=O" in your answer.
### Response 4.26

### Prompt Return reported cell painting activity score. Input compound: "COc1ccc(/C(Cl)=C(\C=O)c2ccc(OC)cc2)cc1"
### Response 5.61

### Prompt For the compound "O=NN(CCCl)C(=O)NC1CCCCC1" , give its reported cell painting activity score.
### Response 4.72

### Prompt Report measured cell painting activity score; entry is "CC(C)[C@H](C(=O)Nc1ccc(C(=O)NO)cc1)c1ccccc1"
### Response 19.4

====

system: U-2 OS; test: relative cell count vs DMSO (cell painting) (fraction of DMSO control); higher = more cells remaining (less cytotoxic); conditions: 1.25 µM; 24 h
measuredQuantity: relative cell count
Give your answer as a number; write no unit.

### Prompt Retrieve relative cell count measured for "COc1ccc(C[C@H](N)C(=O)N[C@H]2[C@@H](O)[C@H](n3cnc4c(N(C)C)ncnc43)O[C@@H]2CO)cc1" and print it.
### Response 0.891

### Prompt State its relative cell count: "O=C(Nc1nc(-c2ccccc2)ns1)c1cccs1"
### Response 0.902

### Prompt Tell us which relative cell count value is on record for "O=C(c1ccc(/C=C/c2n[nH]c3ccccc23)cc1)N1CCNCC1"
### Response 0.914

====

system: U-2 OS; experiment: cell painting activity score (Mahalanobis distance from DMSO wells); higher = stronger morphological phenotype; settings: 5 µM; 24 h
cell painting activity score below 10 gives not satisfied; cell painting activity score at or above it gives satisfied.

### Prompt Given "C=CC(=O)Nc1cccc(Nc2nc(Nc3ccc(Oc4ccnc(C(=O)NC)c4)cc3)ncc2F)c1" , state whether its cell painting activity score is at least 10.
### Response not satisfied

### Prompt Dear colleague, could you confirm whether "Cc1cnc(CNC(=O)c2c(=O)c3ccc(N4CCCN(C)CC4)nc3n3c2sc2ccccc23)cn1" has cell painting activity score at or above 10?
### Response satisfied

### Prompt Decide: is the reported value of cell painting activity score for "COC(=O)Nc1nc2ccc(C(=O)c3cccs3)cc2[nH]1" equal to or greater than 10?
### Response satisfied

### Prompt Does "CCN1CCN(c2ccc3nsnc3c2[N+](=O)[O-])CC1" have a reported cell painting activity score of at least 10?
### Response not satisfied

### Prompt Determine whether this molecule has cell painting activity score no lower than 10: "CCC(=O)CCCCC[C@@H]1NC(=O)[C@H]2CCCCN2C(=O)[C@H]([C@@H](C)CC)NC(=O)[C@H](Cc2cn(OC)c3ccccc23)NC1=O"
### Response satisfied

### Prompt Exam item: decide whether the reported cell painting activity score for "COc1cc([C@@H]2c3cc4c(cc3[C@@H](O[C@@H]3O[C@@H]5CO[C@@H](C)O[C@H]5[C@H](O)[C@H]3O)[C@H]3COC(=O)[C@H]23)OCO4)cc(OC)c1O" is at least 10.
### Response satisfied

### Prompt Item "COc1cc(/C=C/c2cc(/C=C/c3ccc(O)c(OC)c3)n(-c3ccc(C(=O)[O-])cc3)n2)ccc1O.[Na+]" with cell painting activity score of 10 or above?
### Response not satisfied

====

tested on: U-2 OS; assay: cell viability (CellTiter-Glo) relative to DMSO (% of control); higher = more viable; conditions: 40 µM; 24 h
measuredQuantity: cell viability
API doc: respond with a numeric literal and nothing else, no unit.

### Prompt Look up and state reported cell viability for "COc1ccc(/C(Cl)=C(/C=O)c2ccc(OC)cc2)cc1"
### Response 44.2

### Prompt Please give the documented cell viability of "COC1=CC=C(S(=O)(O/N=C2C=C(C(C(C)=C\2)=O)C)=O)C=C1"
### Response 0.28

### Prompt Give cell viability for the following molecule: "C=C1C(=O)O[C@H](CCC)[C@H]1C(=O)O"
### Response 105

### Prompt Return reported cell viability. Input molecule: "CCCC[S@](=N)(=O)CC[C@H](N)C(=O)O"
### Response 101

### Prompt Answer with reported cell viability of "c1cc(SSc2ccns2)sn1"
### Response 2.06

### Prompt Answer with the recorded cell viability for the molecule listed here: "CC1=NN(c2ccc(C(=O)O)cc2)C(=O)/C1=C\c1ccc(-c2cc(C)c(C)cc2[N+](=O)[O-])o1"
### Response 107

====

tested on: U-2 OS; test: cell painting activity score (Mahalanobis distance from DMSO wells); higher = stronger morphological phenotype; conditions: 5 µM; 24 h
measuredQuantity: cell painting activity score

### Prompt Please report the measured cell painting activity score for "O=c1c(O)c(-c2ccc(O)c(O)c2)oc2cc(O)cc(O)c12"
### Response 6.18

### Prompt Write down cell painting activity score measured for item "CC(C)(C)C(=O)OCOc1cccc2ccccc12"
### Response 5.83

### Prompt Quote cell painting activity score reported for "CC1=NN(c2ccc(C(=O)O)cc2)C(=O)/C1=C\c1ccc(-c2cc(C)c(C)cc2[N+](=O)[O-])o1" please.
### Response 6.01
